Molecular target: recombinant human BCMA-his protein (Acro biosystems, Cat #BCA-H522Y) (human) (UniProt Q02223)
Sequence (Q02223 1-54, stated change not applied): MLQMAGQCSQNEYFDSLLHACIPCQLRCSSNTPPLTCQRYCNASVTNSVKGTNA
Assay: BLI Octet RED96, antibody on AHC sensor, BCMA-his in solution
Entries and their measured kon follow.
Write the answer as a number in M⁻¹ s⁻¹, unit excluded.

>>> reading("huB1H2-V2 (antibody, human IgG1, kappa, V domains shown) VH: QVQLVQSGAEVKKPGASVKVSCKASGYTLTNYVMHWVRQAPGQGLEWIGFIIPFNDGTKYNEHFKGRVTITRDTSISTAYMQLSSLRSEDTAVYYCARYDFEGYFDVWGQGTLVTVSS VL: DIQMTQSPSSLSASVGDRVTITCSASQDITNFLNWYQQKPGKTVKLLIYSTSRLHSGVPSRFSGSGSGTDYTFTISSLQPEDIATYYCQQYSNLPWTFGQGTKVEIKR")
573000

Continue with the binder presented below.
Problem: Report kon for huB1H2-V6 (antibody, human IgG1, kappa, V domains shown) VH: QVQLVQSGAEVKKPGASVKVSCKASGYTLTNYVMHWVRQAPGQGLEWIGFIIPFNDGTKYNEHFKGRVTITSDKSISTAYMQLSSLRSEDTAVYYCARYDFEGYFDVWGQGTLVTVSS VL: DIQMTQSPSSLSASVGDRVTITCSASQDITNFLNWYQQKPGKTVKLLIYSTSRLHSGVPSRFSGSGSGTDYTFTISSLQPEDIATYYCQQYSNLPWTFGQGTKVEIKR please.
Result: 392000
